Reference source for all entries: paper PMC7393355

System: binding of CNNM3-YPet and CyPet-PRL2 (CNNM3-PRL2 complex)
Experimental Details: FRET-based inhibition test of the binding of CNNM3-YPet and CyPet-PRL2
Set-up: species or system human
Cond: inhibitory protein 10 μM; pre-incubated 20 min R.T. with binding partner; CNNM3-YPet 200 nM, CyPet-PRL2 200 nM; TBS pH 8.0; mean, n = 6
Measured FRET intensity abolished / inhibition of complex formation, listed per entry.
Enter your answer as a number in %; do not include the unit.

Please review the following examples before continuing.
{"Molecule": "CNNM3 CBS domain D426A mutant: CNNM3 CBS domain with D426A mutation at the PRL2-binding site (protein, left off: His tag (from the vector pET28a and the Ni-NTA purification), end not stated, state not stated) YSDLSKGVLRCRTVEDVLTPLEDCFMLDASTVLDFGVLASIMQSGHTRIPVYEEERSNIVDMLYLKDLAFVDPEDCTPLSTITRFYNHPLHFVFNDTKLDAVLEEFKRGKSHLAIVQKVNNEGEGAPFYEVLGLVTLEDVIEEIIRSEILDE", "Number": 12.9}
{"Molecule": "non-YPet-tagged CNNM3: purified non-fluorescence-tagged CBS domain of human CNNM3 (protein, left off: His tag (from the vector pET28a and the Ni-NTA purification), end not stated, state not stated) YSDLSKGVLRCRTVEDVLTPLEDCFMLDASTVLDFGVLASIMQSGHTRIPVYEEERSNIVDMLYLKDLAFVDPEDCTPLSTITRFYNHPLHFVFNDTKLDAVLEEFKRGKSHLAIVQKVNNEGEGDPFYEVLGLVTLEDVIEEIIRSEILDE", "Number": 89.2}

--- query ---
Just so you know, measured FRET intensity abolished / inhibition of complex formation for PRL1: purified non-fluorescence protein-tagged human PRL1 (protein) MARMNRPAPVEVTYKNMRFLITHNPTNATLNKFIEELKKYGVTTIVRVCEATYDTTLVEKEGIHVLDWPFDDGAPPSNQIVDDWLSLVKIKFREEPGCCIAVHCVAGLGRAPVLVALALIEGGMKYEDAVQFIRQKRRGAFNSKQLLYLEKYRPKMRLRFKDSNGHRNNCCIQ came out at 90.0
